Hi there, I'd appreciate the recorded Population Fragmented Nuclei (%) for every entry that follows.
- Test system: Fibroblast
- assay: Multiplex assay against human fibroblast
- Type: toxicity, cell-based
- condition details: 24 h, 10 µM, compound concentration 10 uM, replicate 2
Give bare numbers, in %.

Example cases with answers are listed next.
Dear colleague, I am looking for the recorded Population Fragmented Nuclei (%) of the following compound: CCNC1(C(N)=O)CCN(c2ncnc3c2nc(-c2ccccc2Cl)n3-c2ccc(Cl)cc2)CC1 [OTENABANT]
37

Proceed to Oc1c(CN2CCN(c3ccccn3)CC2)cc(Cl)c2cccnc12
35

Proceed to C[C@@H]1C[C@H]2[C@@H]3CCC4=CC(=O)C=C[C@]4(C)[C@@]3(F)[C@@H](O)C[C@]2(C)[C@@]1(O)C(=O)CO [DEXAMETHASONE]
30

Proceed to Cc1ccccc1C(=O)Nc1ccc(C(=O)N2CCCC(N(C)C)c3ccccc32)cc1.Cl (centres undefined)
37

Proceed to COc1c(C)cc(NC(=O)c2nn(Cc3ccc(F)cc3)c3c2CN(C(=O)c2ccc[nH]2)C[C@]3(C)C(N)=O)cc1C
30

Hey, quick one: what's Population Fragmented Nuclei (%) for each of these?
1. COc1cc(C(=O)N(CCCc2ccccc2)Cc2ccc(CC(=O)O)cc2)cc(OC)c1C
2. O=C(O)c1cc2ccccc2c(Cc2c(O)c(C(=O)O)cc3ccccc23)c1O [PAMOIC ACID]
3. CCCC(CCC)C(=O)O [VALPROIC ACID]
4. Cc1ccc(/C(=C\CN2CCCC2)c2ccccn2)cc1 [TRIPROLIDINE]

[25, 34, 30, 29]

----------
- Tested on: HEK-293T
- assay: Multiplex assay against HEK293T
- Type: toxicity, cell-based
- condition details: human, 24 h, 10 µM, compound concentration 10 uM, replicate 2
Hi there, I'd appreciate the recorded Population Fragmented Nuclei (%) for every entry that follows.
Answers are plain numbers, in %.

Example cases with answers are listed next.
Request: Population Fragmented Nuclei (%), test system HEK-293T, entry Cc1ccc(F)cc1C(=O)Nc1ccc(C(=O)N2Cc3cccn3Cc3ccccc32)c(Cl)c1 [LIXIVAPTAN]
8

Proceed to Cc1ccccc1C(=O)Nc1ccc(C(=O)N2CCCC(N(C)C)c3ccccc32)cc1.Cl (stereo unspecified)
7

Proceed to COc1c(C)cc(NC(=O)c2nn(Cc3ccc(F)cc3)c3c2CN(C(=O)c2ccc[nH]2)C[C@]3(C)C(N)=O)cc1C
5

Hey, quick one: what's Population Fragmented Nuclei (%) for each of these?
1. CC1(COc2ccc3c(c2)ncn3-c2ccc3cccc(N4CCC(N)CC4)c3n2)COC1 [CRENOLANIB]
2. CNC[C@H](O)c1ccc(O)c(O)c1 [EPINEPHRINE]
3. Cc1ccc(C(C)(O)c2nc3ccccc3s2)c(C)c1 (stereo unspecified)
4. O=C1COc2nccc(-c3ccccc3F)c2CN1Cc1cc(C(F)(F)F)cc(C(F)(F)F)c1
5. c1cc(OCCCN2CCCCC2)ccc1CN1CCCCC1 [JNJ-5207852]
6. COc1ccc2c(c1)C(C(=O)N(Cc1ccc(N(C)C)cc1)c1ccc(C(C)C)cc1)CCC2.Cl (stereo unspecified)
7. Cl.Clc1ccc2nsnc2c1NC1=NCCN1 [TIZANIDINE HYDROCHLORIDE]
8. N[C@@]1(C(=O)O)CO[C@H]2[C@H](C(=O)O)[C@H]21 [LY-379268]

[69, 11, 10, 7, 8, 7, 10, 8]
